- TARGET OF ASSAY: UniProt P61169
- Sequence (P61169 whole entry): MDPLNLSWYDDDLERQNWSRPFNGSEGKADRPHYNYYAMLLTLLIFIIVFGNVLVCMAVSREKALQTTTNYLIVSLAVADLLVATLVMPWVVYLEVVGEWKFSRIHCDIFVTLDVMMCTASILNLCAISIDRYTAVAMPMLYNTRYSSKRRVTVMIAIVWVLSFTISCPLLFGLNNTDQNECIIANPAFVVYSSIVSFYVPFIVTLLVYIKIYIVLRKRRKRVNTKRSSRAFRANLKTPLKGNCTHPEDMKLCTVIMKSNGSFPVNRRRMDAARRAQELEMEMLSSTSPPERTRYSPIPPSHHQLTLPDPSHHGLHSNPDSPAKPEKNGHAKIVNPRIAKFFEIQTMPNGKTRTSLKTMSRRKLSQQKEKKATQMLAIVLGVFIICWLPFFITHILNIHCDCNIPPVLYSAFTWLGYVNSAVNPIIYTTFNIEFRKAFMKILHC
- PROTOCOL NOTES: Binding affinity against dopamine D2 receptor in rat brain synaptic membrane using [3H]-spiperone as radioligand
- Assay type: cell membranes
Field: IC50. Provide a value for each of the compounds that follow.

[Q] Quick one: IC50 for CCN1CCN(C)CC(NC(=O)c2cc(Cl)c(NC)cc2OC)C1 (configuration not stated) ?
[A] 61 nM

[Q] Next compound: CCN1CCCC[C@H](NC(=O)c2cc(Cl)c(NC)cc2OC)C1
[A] 367 nM

[Q] Next compound: CCN1CCN(C)C[C@H](NC(=O)c2cc(Cl)c(NC)cc2OC)C1
[A] 320 nM

[Q] Next compound: COc1cc(N)c(Cl)cc1C(=O)NC1CCCCN(C(C)C)C1 (configuration not stated)
[A] 87 nM

[Q] Next compound: Cc1nccn1CC1CCc2c(c3ccccc3n2C)C1=O (configuration not stated)
[A] > 1000 nM

[Q] Next compound: CCN1CCCC[C@@H](NC(=O)c2cc(Cl)c(NC)cc2OC)C1
[A] 4.5 nM

[Q] Next compound: CCN1CCCC[C@H](NC(=O)c2cc(Cl)c(N)cc2OC)C1
[A] > 1000 nM

[Q] Next compound: CCN1CCCCC(NC(=O)c2cc(Cl)c(NC)cc2OC)C1 (configuration not stated)
[A] 11 nM

[Q] Next compound: CCCN1CCCCC(NC(=O)c2cc(Cl)c(N)cc2OC)C1 (configuration not stated)
[A] 57 nM

[Q] Next compound: CCNc1cc(OC)c(C(=O)NC2CN(C)CCN(CC)C2)cc1Cl (configuration not stated)
[A] 181 nM

[Q] Next compound: CCCN1CCN(C)CC(NC(=O)c2cc(Cl)c(N)cc2OC)C1 (configuration not stated)
[A] 218 nM

[Q] Next compound: CCN1CCN(C)C[C@@H](NC(=O)c2cc(Cl)c(N)cc2OC)C1
[A] 87 nM

[Q] Next compound: CCN1CCCCC(NC(=O)c2cc(Cl)c(N)cc2OC)C1 (configuration not stated)
[A] 39 nM

[Q] Next compound: CCN1CCN(C)CC(NC(=O)c2cc(Cl)c(N)cc2OC)C1 (configuration not stated)
[A] 127 nM

[Q] Next compound: CCNc1cc(OC)c(C(=O)NC2CCCCN(CC)C2)cc1Cl (configuration not stated)
[A] 25 nM

[Q] Next compound: CCN1CCN(C)C[C@H](NC(=O)c2cc(Cl)c(N)cc2OC)C1
[A] 517 nM

[Q] Next compound: CCN1CCCC[C@@H](NC(=O)c2cc(Cl)c(N)cc2OC)C1
[A] 19 nM

###

- TARGET OF ASSAY: Serotonin 3 (5-HT3) receptor (Rattus norvegicus, UniProt P35563+Q9JJ16)
- Sequence (P35563 whole entry): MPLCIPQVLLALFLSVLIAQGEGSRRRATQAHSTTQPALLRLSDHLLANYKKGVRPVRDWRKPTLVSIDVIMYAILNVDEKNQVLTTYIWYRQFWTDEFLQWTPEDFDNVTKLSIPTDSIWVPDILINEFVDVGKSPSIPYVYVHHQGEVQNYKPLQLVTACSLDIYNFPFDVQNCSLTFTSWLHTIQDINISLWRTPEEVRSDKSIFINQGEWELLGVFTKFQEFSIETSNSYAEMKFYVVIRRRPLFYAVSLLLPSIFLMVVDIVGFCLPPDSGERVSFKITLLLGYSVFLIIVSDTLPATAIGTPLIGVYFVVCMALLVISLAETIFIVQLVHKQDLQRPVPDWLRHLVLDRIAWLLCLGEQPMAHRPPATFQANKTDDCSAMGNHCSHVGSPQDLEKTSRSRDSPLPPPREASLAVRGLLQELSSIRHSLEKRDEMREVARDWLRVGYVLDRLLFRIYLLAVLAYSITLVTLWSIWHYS
- Sequence (Q9JJ16 whole entry): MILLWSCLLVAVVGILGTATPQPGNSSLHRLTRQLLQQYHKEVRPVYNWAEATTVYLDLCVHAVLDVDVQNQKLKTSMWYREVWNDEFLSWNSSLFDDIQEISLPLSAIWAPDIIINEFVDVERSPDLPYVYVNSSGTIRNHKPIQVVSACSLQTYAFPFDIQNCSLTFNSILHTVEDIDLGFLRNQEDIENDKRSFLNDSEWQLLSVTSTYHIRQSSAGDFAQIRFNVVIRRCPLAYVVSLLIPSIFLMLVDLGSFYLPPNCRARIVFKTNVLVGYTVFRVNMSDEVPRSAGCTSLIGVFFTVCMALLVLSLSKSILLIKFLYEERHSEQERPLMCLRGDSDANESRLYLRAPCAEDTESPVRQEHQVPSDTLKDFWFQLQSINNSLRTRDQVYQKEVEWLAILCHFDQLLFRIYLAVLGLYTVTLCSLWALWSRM
- PROTOCOL NOTES: Binding affinity against 5-hydroxytryptamine 3 receptor in rat cortical membrane using [3H]GR-65630 as radioligand
OBSERVATION TYPE: IC50 (nM)
Write the answer as a number in nM, unit excluded.

[Q] Quick one: IC50 for CCNc1cc(OC)c(C(=O)NC2CN(C)CCN(CC)C2)cc1Cl (stereo not drawn) ?
[A] 1.9

[Q] Next compound: CCNc1cc(OC)c(C(=O)NC2CCCCN(CC)C2)cc1Cl (stereo not drawn)
[A] 50

[Q] Next compound: CCN1CCN(C)C[C@H](NC(=O)c2cc(Cl)c(N)cc2OC)C1
[A] 7

[Q] Next compound: COc1cc(N)c(Cl)cc1C(=O)NC1CCCCN(C(C)C)C1 (stereo not drawn)
[A] 640

[Q] Next compound: COc1cc(N)c(Cl)cc1C(=O)NC1CCCCN(C)C1 (stereo not drawn)
[A] 36

[Q] Next compound: CCN1CCCCC(NC(=O)c2cc(Cl)c(N)cc2OC)C1 (stereo not drawn)
[A] 33

[Q] Next compound: CCN1CCCC[C@@H](NC(=O)c2cc(Cl)c(NC)cc2OC)C1
[A] 97

[Q] Next compound: CCCN1CCCCC(NC(=O)c2cc(Cl)c(N)cc2OC)C1 (stereo not drawn)
[A] 37

[Q] Next compound: CCN1CCN(C)CC(NC(=O)c2cc(Cl)c(N)cc2OC)C1 (stereo not drawn)
[A] 8.5

[Q] Next compound: CCN1CCN(C)CC(NC(=O)c2cc(Cl)c(NC)cc2OC)C1 (stereo not drawn)
[A] 4.8

[Q] Next compound: CCN1CCN(C)C[C@@H](NC(=O)c2cc(Cl)c(N)cc2OC)C1
[A] 12

[Q] Next compound: CCN1CCCCC(NC(=O)c2cc(Cl)c(NC)cc2OC)C1 (stereo not drawn)
[A] 6.6

[Q] Next compound: CCN1CCCC[C@H](NC(=O)c2cc(Cl)c(NC)cc2OC)C1
[A] 4.5

[Q] Next compound: COc1cc(N)c(Cl)cc1C(=O)NC1CN(C)CCN(C)C1
[A] 9.6

[Q] Next compound: CCN1CCN(C)C[C@H](NC(=O)c2cc(Cl)c(NC)cc2OC)C1
[A] 1.5

[Q] Next compound: CCN1CCCC[C@H](NC(=O)c2cc(Cl)c(N)cc2OC)C1
[A] 10

[Q] Next compound: CCCN1CCN(C)CC(NC(=O)c2cc(Cl)c(N)cc2OC)C1 (stereo not drawn)
[A] 24

[Q] Next compound: CCN1CCCC[C@@H](NC(=O)c2cc(Cl)c(N)cc2OC)C1
[A] 134
